system: protein kinases (human kinome); assay type: cell-based; conditions: CDK9 (P50750-2) protein abundance, degrader vs DMSO; down
Rule: measured logFC below -0.9 gets 1; anything equal to or greater than -0.9 gets -1.

Below, 3 compounds whose answers are already recorded.
INSERT INTO assay_data (compound, assayed_target, cat) VALUES
  ('CC(C)S(=O)(=O)c1ccccc1Nc1nc(Nc2ccc(N3CCN(CCOCCOCCOCCNC(=O)CNc4cccc5c4C(=O)N(C4CCC(=O)NC4=O)C5=O)CC3)cc2)ncc1Cl (centres unmarked)', 'protein kinases (human kinome)', -1),
  ('O=C(COc1cccc2c1C(=O)N(C1CCC(=O)NC1=O)C2=O)NCCCCCCCN1CCc2cc(Nc3ncc(C4CC4)c(NCCCNC(=O)C4CCC4)n3)ccc2C1 (centres unmarked)', 'protein kinases (human kinome)', 1),
  ('CC(C)S(=O)(=O)c1ccccc1Nc1nc(Nc2ccc(N3CCN(CCOCCNC(=O)CNc4ccc5c(c4)C(=O)N(C4CCC(=O)NC4=O)C5=O)CC3)cc2)ncc1Cl (centres unmarked)', 'protein kinases (human kinome)', -1);

Field: next compound
Bench note: check whether NC(=O)c1c(F)cccc1Nc1nc(Nc2ccc(S(=O)(=O)NCCOCCOCCOCCOCCNc3cccc4c3C(=O)N(C3CCC(=O)NC3=O)C4=O)cc2)ncc1Br (centres unmarked) shows logFC below -0.9
1

###

Give logFC CDK4 (P11802) for every item shown.
target: protein kinases (human kinome) (Homo sapiens, UniProt P11802); assay type: cell-based; settings: experiment wp045
Sequence (P11802 whole entry): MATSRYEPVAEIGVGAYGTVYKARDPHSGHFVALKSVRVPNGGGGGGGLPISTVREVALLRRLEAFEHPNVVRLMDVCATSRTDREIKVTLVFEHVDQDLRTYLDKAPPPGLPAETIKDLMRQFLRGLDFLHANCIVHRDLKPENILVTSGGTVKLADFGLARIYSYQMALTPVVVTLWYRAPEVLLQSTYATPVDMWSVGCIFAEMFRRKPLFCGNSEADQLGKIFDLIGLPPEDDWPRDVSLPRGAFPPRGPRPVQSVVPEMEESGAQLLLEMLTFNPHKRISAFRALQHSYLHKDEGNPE
Numbers only.

INSERT INTO assay_data (compound, assayed_target, value_reported) VALUES
  ('Cc1ccc(NC(=O)c2cccc(C(F)(F)F)c2)cc1N1Cc2cnc(Nc3ccc(N4CCN(CCCCCCOc5cccc6c5C(=O)N(C5CCC(=O)NC5=O)C6=O)CC4)nc3)nc2N(C)C1=O (stereo not shown) [DB0663]', 'protein kinases (human kinome) (Homo sapiens, UniProt P11802)', '−0.6823'),
  ('Cc1ccc(NC(=O)c2cccc(C(F)(F)F)c2)cc1N1Cc2cnc(Nc3ccc(N4CCN(Cc5cn(CCCCCOc6cccc7c6C(=O)N(C6CCC(=O)NC6=O)C7=O)nn5)CC4)nc3)nc2N(C)C1=O (stereo not shown) [DB0646]', 'protein kinases (human kinome) (Homo sapiens, UniProt P11802)', '−0.9012'),
  ('CS(=O)(=O)Nc1cccc(-c2csc3cnc(Nc4ccc(N5CCN(CCOCCOCCOc6cccc7c6C(=O)N(C6CCC(=O)NC6=O)C7=O)CC5)cc4)nc23)c1 (stereo not shown) [RSS0628]', 'protein kinases (human kinome) (Homo sapiens, UniProt P11802)', '−1.422');

Pending compound:
Given the entry CS(=O)(=O)Nc1cccc(-c2csc3cnc(Nc4ccc(N5CCN(CCCCCOc6cccc7c6C(=O)N(C6CCC(=O)NC6=O)C7=O)CC5)cc4)nc23)c1 (stereo not shown) [DB0614] , report its measured logFC CDK4 (P11802).
−1.539

###

target: protein kinases (human kinome) (Homo sapiens, UniProt Q16539); type: cell-based; settings: MAPK14 (Q16539) protein abundance, degrader vs DMSO; down
Sequence (Q16539 whole entry): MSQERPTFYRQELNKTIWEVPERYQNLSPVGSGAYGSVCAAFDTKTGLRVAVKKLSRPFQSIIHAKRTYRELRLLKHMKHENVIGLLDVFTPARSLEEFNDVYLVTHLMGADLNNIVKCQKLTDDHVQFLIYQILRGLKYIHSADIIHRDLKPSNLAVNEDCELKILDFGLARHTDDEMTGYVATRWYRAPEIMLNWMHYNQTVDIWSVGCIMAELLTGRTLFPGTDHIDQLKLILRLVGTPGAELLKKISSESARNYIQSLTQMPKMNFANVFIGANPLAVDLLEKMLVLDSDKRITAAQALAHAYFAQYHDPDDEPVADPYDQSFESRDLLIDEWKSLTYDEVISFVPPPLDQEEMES
recorded-endpoint: logFC
One number for each entry.

INSERT INTO measurements (compound, recorded_endpoint, value_reported) VALUES
  ('Cc1ccc(NC(=O)c2cccc(C(F)(F)F)c2)cc1N1Cc2cnc(Nc3ccc(N4CCN(CCCCCCOc5cccc6c5C(=O)N(C5CCC(=O)NC5=O)C6=O)CC4)nc3)nc2N(C)C1=O (stereo not shown)', 'logFC', '−0.6293');

Hi there! I need logFC for each item below, if you can.
1. Cc1ccc(NC(=O)c2cccc(C(C)(C)C#N)c2)cc1Nc1ccc2ncn(CCOCCOCCC(=O)N[C@H](C(=O)N3C[C@H](O)C[C@H]3C(=O)NCc3ccc(-c4scnc4C)cc3)C(C)(C)C)c(=O)c2c1
2. CC(C)(C)c1cc(NC(=O)Nc2ccc(Oc3ccnc(C(=O)NCCOCCOCCNC(=O)CNc4cccc5c4C(=O)N(C4CCC(=O)NC4=O)C5=O)c3)cc2F)n(-c2ccc3ncccc3c2)n1 (stereo not shown)
3. Cc1ccc(C(=O)Nc2ccc(CN3CCN(CCOCCOCCNC(=O)CNc4cccc5c4C(=O)N(C4CCC(=O)NC4=O)C5=O)CC3)c(C(F)(F)F)c2)cc1C#Cc1cnc2cccnn12 (stereo not shown)

["−1.387", "−0.5659", "−0.3738"]

###

biological target: protein kinases (human kinome) (Homo sapiens, UniProt P53671); assay type: cell-based; details: LIMK2 (P53671); experiment wp016; down
Sequence (P53671 whole entry): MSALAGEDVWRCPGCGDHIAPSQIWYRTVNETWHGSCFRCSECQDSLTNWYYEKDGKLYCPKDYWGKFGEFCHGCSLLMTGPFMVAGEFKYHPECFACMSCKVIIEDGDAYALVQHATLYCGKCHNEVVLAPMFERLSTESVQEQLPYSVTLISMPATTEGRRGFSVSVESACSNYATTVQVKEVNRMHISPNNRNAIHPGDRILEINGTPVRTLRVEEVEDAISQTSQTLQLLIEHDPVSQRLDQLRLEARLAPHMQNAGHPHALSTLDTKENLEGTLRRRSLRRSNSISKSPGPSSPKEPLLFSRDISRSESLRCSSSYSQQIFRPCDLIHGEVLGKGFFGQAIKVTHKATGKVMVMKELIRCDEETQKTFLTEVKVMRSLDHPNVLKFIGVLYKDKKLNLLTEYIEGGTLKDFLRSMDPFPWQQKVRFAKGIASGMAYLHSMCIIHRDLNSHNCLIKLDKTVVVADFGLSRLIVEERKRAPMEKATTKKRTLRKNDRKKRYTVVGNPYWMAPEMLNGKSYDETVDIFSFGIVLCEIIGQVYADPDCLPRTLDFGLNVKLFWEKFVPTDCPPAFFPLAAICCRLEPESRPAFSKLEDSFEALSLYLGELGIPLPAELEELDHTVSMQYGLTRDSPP
Rule: measured logFC LIMK2 below -0.7 gets 1; anything equal to or greater than -0.7 gets -1.

Bench note: check whether CC(C)S(=O)(=O)c1ccccc1Nc1nc(Nc2ccc(N3CCN(CCOCCOCCOCCNC(=O)CNc4cccc5c4C(=O)N(C4CCC(=O)NC4=O)C5=O)CC3)cc2)ncc1Cl (stereo not drawn) shows logFC LIMK2 below -0.7
-1

Lookup CC(C)S(=O)(=O)c1ccccc1Nc1nc(Nc2ccc(N3CCN(CCOCCNC(=O)CNc4cccc5c4C(=O)N(C4CCC(=O)NC4=O)C5=O)CC3)cc2)ncc1Cl (stereo not drawn)
1

Lookup CC(C)S(=O)(=O)c1ccccc1Nc1nc(Nc2ccc(N3CCN(CCOCCOCCNC(=O)CNc4ccc5c(c4)C(=O)N(C4CCC(=O)NC4=O)C5=O)CC3)cc2)ncc1Cl (stereo not drawn)
1

Lookup CC(C)S(=O)(=O)c1ccccc1Nc1nc(Nc2ccc(N3CCN(CCOCCOCCNC(=O)CNc4cccc5c4C(=O)N(C4CCC(=O)NC4=O)C5=O)CC3)cc2)ncc1Cl (stereo not drawn)
1

Lookup CC(C)S(=O)(=O)c1ccccc1Nc1nc(Nc2ccc(N3CCN(CCOCCNC(=O)CNc4ccc5c(c4)C(=O)N(C4CCC(=O)NC4=O)C5=O)CC3)cc2)ncc1Cl (stereo not drawn)
1

Lookup CC(C)S(=O)(=O)c1ccccc1Nc1nc(Nc2ccc(N3CCN(CCOCCOCCOCCNC(=O)CNc4ccc5c(c4)C(=O)N(C4CCC(=O)NC4=O)C5=O)CC3)cc2)ncc1Cl (stereo not drawn)
-1

###

target: protein kinases (human kinome) (Homo sapiens, UniProt P45984); format: cell-based; settings: MAPK9 P45984-1; experiment wp146
Sequence (P45984 whole entry): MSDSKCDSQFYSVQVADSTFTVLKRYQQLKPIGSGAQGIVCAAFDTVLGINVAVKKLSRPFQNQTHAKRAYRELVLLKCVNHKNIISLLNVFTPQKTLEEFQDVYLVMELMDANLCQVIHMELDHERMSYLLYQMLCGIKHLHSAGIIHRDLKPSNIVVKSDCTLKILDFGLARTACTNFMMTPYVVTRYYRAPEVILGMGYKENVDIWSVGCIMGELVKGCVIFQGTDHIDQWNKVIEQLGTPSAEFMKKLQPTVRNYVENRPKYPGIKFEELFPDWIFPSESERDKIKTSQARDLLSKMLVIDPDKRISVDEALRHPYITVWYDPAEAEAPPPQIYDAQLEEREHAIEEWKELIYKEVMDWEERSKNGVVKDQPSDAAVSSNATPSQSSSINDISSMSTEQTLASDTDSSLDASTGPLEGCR
Give logFC MAPK9 for every item shown.

Study these solved cases before continuing.
INSERT INTO measurements (compound, assayed_target, recorded_endpoint, value_reported) VALUES
  ('Cc1cc(Nc2ncc(Br)c(Nc3cccc(F)c3C(N)=O)n2)ccc1S(=O)(=O)NCCOCCOCCOCCOCCNc1cccc2c1C(=O)N(C1CCC(=O)NC1=O)C2=O (stereo not shown)', 'protein kinases (human kinome) (Homo sapiens, UniProt P45984)', 'logFC MAPK9', '−1.031'),
  ('NC(=O)c1c(F)cccc1Nc1nc(Nc2ccc(S(=O)(=O)NCCOCCOCCOCCOCCNc3cccc4c3C(=O)N(C3CCC(=O)NC3=O)C4=O)cc2)ncc1Br (stereo not shown)', 'protein kinases (human kinome) (Homo sapiens, UniProt P45984)', 'logFC MAPK9', '−1.518'),
  ('Cc1cc(S(=O)(=O)NCCOCCOCCOCCOCCNc2cccc3c2C(=O)N(C2CCC(=O)NC2=O)C3=O)ccc1Nc1ncc(Br)c(Nc2cccc(F)c2C(N)=O)n1 (stereo not shown)', 'protein kinases (human kinome) (Homo sapiens, UniProt P45984)', 'logFC MAPK9', '−1.091');

Pending compound:
Given the entry NC(=O)c1c(F)cccc1Nc1nc(NC2CCN(S(=O)(=O)CCNC(=O)CCCCCCCCOc3cccc4c3C(=O)N(C3CCC(=O)NC3=O)C4=O)CC2)ncc1Br (stereo not shown) , report its measured logFC MAPK9.
−3.32

###

target: UniProt:Q00535; format: cell-based; conditions: experiment wp146
Sequence (Q00535 whole entry): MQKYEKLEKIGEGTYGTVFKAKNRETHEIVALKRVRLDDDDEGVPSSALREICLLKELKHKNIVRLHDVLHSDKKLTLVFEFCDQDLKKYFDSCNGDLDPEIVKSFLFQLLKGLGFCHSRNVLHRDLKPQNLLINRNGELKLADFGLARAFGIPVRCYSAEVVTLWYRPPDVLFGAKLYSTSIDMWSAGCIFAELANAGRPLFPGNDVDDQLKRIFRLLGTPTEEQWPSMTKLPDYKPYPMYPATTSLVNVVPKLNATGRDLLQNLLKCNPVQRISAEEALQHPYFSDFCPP
Give logFC CDK5 (Q00535) for every item shown.
Answers are plain numbers.

Study these solved cases before continuing.
INSERT INTO results (molecule, assayed_target, value_reported) VALUES
  ('Cc1cc(S(=O)(=O)NCCOCCOCCOCCOCCNc2cccc3c2C(=O)N(C2CCC(=O)NC2=O)C3=O)ccc1Nc1ncc(Br)c(Nc2cccc(F)c2C(N)=O)n1 (stereo not shown)', 'UniProt:Q00535', '−2.878'),
  ('Cc1cc(Nc2ncc(Br)c(Nc3cccc(F)c3C(N)=O)n2)ccc1S(=O)(=O)NCCOCCOCCOCCOCCNc1cccc2c1C(=O)N(C1CCC(=O)NC1=O)C2=O (stereo not shown)', 'UniProt:Q00535', '−3.161'),
  ('NC(=O)c1c(F)cccc1Nc1nc(NC2CCN(S(=O)(=O)CCNC(=O)CCCCCCCCOc3cccc4c3C(=O)N(C3CCC(=O)NC3=O)C4=O)CC2)ncc1Br (stereo not shown)', 'UniProt:Q00535', '−2.901');

Pending molecule:
Field: logFC CDK5 (Q00535) (UniProt:Q00535). Entry: NC(=O)c1c(F)cccc1Nc1nc(Nc2ccc(S(=O)(=O)NCCOCCOCCOCCOCCNc3cccc4c3C(=O)N(C3CCC(=O)NC3=O)C4=O)cc2)ncc1Br (stereo not shown)
−3.29
